Test: endothelial E-selectin expression blockers – imaging, HUVEC, immunofluorescence, MLSMR starter and 10KST1 sets, primary screen (AID 487);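 further: signal is fraction of cell area covered by stained E-selectin grains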
Conditions: HUVEC TNFalpha-induced E-selectin immunofluorescence imaging, at 2 µM; hits give high values
Classification field: Criterion met = inhibition at or over -80%; Criterion not met = inhibition under -80%.

Please check the record CCOCC(=O)NC1CCSC1=O (stereo not given) and state if its inhibition is at or above -80%.
Criterion met

Please check the record "CN1C(=O)CN=C(c2ccc(Cl)cc2)c2cc(Cl)ccc21" and state if its inhibition is at or above -80%.
Criterion not met

Please check the record "CCOc1c(P(=S)(N(C)C)N(C)C)c(C)nn1-c1ccccc1" and state if its inhibition is at or above -80%.
Criterion met

Please check the record "O=c1[nH]c(=O)n(-c2cccc(Cl)c2)c(O)c1C=NCCN1CCCCC1" and state if its inhibition is at or above -80%.
Criterion met

Please check the record "COc1cccc(CN2CCN(C(=O)COc3ccc4ccccc4c3)CC2)c1" and state if its inhibition is at or above -80%.
Criterion not met

Please check the record CCCCNC(=O)Nc1ccc(C(O)(C(=O)OC)C(F)(F)F)cc1 (stereo not given) and state if its inhibition is at or above -80%.
Criterion met

Please check the record O=C(c1cccs1)C1CN2CCC1CC2 (stereo not given) and state if its inhibition is at or above -80%.
Criterion met

Please check the record "Cc1ccc2c(c1)[C@@H]1CN(C)CC[C@@H]1N2C(=O)Nc1cccc(C(F)(F)F)c1" and state if its inhibition is at or above -80%.
Criterion not met

Please check the record "Cc1cnn(C2CCN(C)CC2)c1N" and state if its inhibition is at or above -80%.
Criterion met

Please check the record "COC(=O)c1c(C)n(Cc2ccc3c(c2)OCO3)c2ccc(O)cc12" and state if its inhibition is at or above -80%.
Criterion met

Please check the record "COc1cccc(-n2c(C)nc3ccccc3c2=O)c1" and state if its inhibition is at or above -80%.
Criterion met

Please check the record "COc1ccc(N2CCN(CCCN)CC2)cc1" and state if its inhibition is at or above -80%.
Criterion met

Please check the record COc1ccc(S(=O)(=O)NC(CC(=O)N2CCC3(CC2)OCCO3)c2ccco2)cc1 (stereo not given) and state if its inhibition is at or above -80%.
Criterion not met

Please check the record C[N+]1(C)[C@@H]2CC(OC(=O)[C@H](CO)c3ccccc3)C[C@H]1[C@@H]1O[C@@H]12 (stereo not given in full) and state if its inhibition is at or above -80%.
Criterion met

Please check the record "CCNc1ccc(P(=S)(N(C)C)N(C)C)cc1" and state if its inhibition is at or above -80%.
Criterion not met

Please check the record O=C(C1CCCN(S(=O)(=O)c2cccc3nsnc23)C1)N1CCC2(CC1)OCCO2 (stereo not given) and state if its inhibition is at or above -80%.
Criterion not met

Please check the record "NC(=O)OCCSc1nnc(-c2cccc(C(N)=S)c2)o1" and state if its inhibition is at or above -80%.
Criterion met

Please check the record "COc1ccc(C(=O)N2CCCC2=O)cc1" and state if its inhibition is at or above -80%.
Criterion met

Please check the record CSc1ccc(CNC2CN3CCC2CC3)cc1 (stereo not given) and state if its inhibition is at or above -80%.
Criterion met

Please check the record CCOC(=O)C(O)(c1ccc(N(CC)C(=O)OC)cc1)C(F)(F)F (stereo not given) and state if its inhibition is at or above -80%.
Criterion not met

Please check the record COc1ccc(C2SCC(=O)Nc3c2c(=O)[nH]n3C2CCCCCC2)cc1OC (stereo not given) and state if its inhibition is at or above -80%.
Criterion met

Please check the record "O=c1c2ccccc2[se]n1-c1ccccc1" and state if its inhibition is at or above -80%.
Criterion met

Please check the record "C[C@H]1CCCC(=O)CCCCCc2cc(O)cc(O)c2C(=O)O1" and state if its inhibition is at or above -80%.
Criterion not met

Please check the record "O=c1[nH]c(=O)n(Cc2ccccc2)c(O)c1C=NCCN1CCOCC1" and state if its inhibition is at or above -80%.
Criterion met

Please check the record CCCCSP1(=S)NCCCO1 (stereo not given) and state if its inhibition is at or above -80%.
Criterion met

Please check the record "Cn1c(O)c(C=NCc2ccco2)c(=O)n(C)c1=O" and state if its inhibition is at or above -80%.
Criterion not met

Please check the record "CN(C)CCN=Cc1c(O)n(-c2cccc3ccccc23)c(=O)[nH]c1=O" and state if its inhibition is at or above -80%.
Criterion met

Please check the record O=C(Cc1ccccc1)OC(COCc1ccccc1)CN1CCOCC1 (stereo not given) and state if its inhibition is at or above -80%.
Criterion met

Please check the record "CC(C)[C@@]1(NC(=O)[C@@H]2C=C3c4cccc5[nH]cc(c45)C[C@H]3N(C)C2)O[C@@]2(O)[C@@H]3CCCN3C(=O)[C@H](Cc3ccccc3)N2C1=O" and state if its inhibition is at or above -80%.
Criterion met
